- Read-out: JUN Transcription Factor, JUN (gene 3725)
- method description: LTEA_HepaRG_JUN: Life Technologies and Expression Analysis (LTEA) Assay for JUN Transcription Factor using HepaRG (AID 2283513)
- condition label: mRNA level, 48 h; actives raise or lower the signal
Calls of active or inactive are those of the source. Rule for the calls: active = hit-call score of the fitted dose curve at least 0.9, where 1 is the maximum; inactive = score below 0.9.
Choose one outcome from this list and give only that: 1.0 = active, 0.0 = inactive

Would you mind telling me which call this test gave O=S(=O)(O)C(F)(F)C(F)(F)C(F)(F)C(F)(F)C(F)(F)C(F)(F)F ?
0.0

Would you mind telling me which call this test gave c1ccc(-c2ccccc2)cc1 ?
0.0

Would you mind telling me which call this test gave CCC(=O)O[C@H]1CC[C@H]2[C@@H]3CCC4=CC(=O)CC[C@]4(C)[C@H]3CC[C@]12C ?
0.0

Would you mind telling me which call this test gave O=C(O)C(F)(F)C(F)(F)C(F)(F)C(F)(F)C(F)(F)C(F)(F)C(F)(F)C(F)(F)F ?
1.0

Would you mind telling me which call this test gave Cc1ccccc1O ?
0.0

Would you mind telling me which call this test gave ClC1=C(Cl)[C@]2(Cl)[C@@H]3[C@H]4C[C@H]([C@@H]5O[C@H]45)[C@@H]3[C@@]1(Cl)C2(Cl)Cl ?
0.0

Would you mind telling me which call this test gave C=CC(N)=O ?
0.0

Would you mind telling me which call this test gave Cc1ccccc1[N+](=O)[O-] ?
0.0

----------
- Read-out: CD38, CD38 (gene 952)
- method description: BSK_SAg_CD38: BioMAP Diversity Plus: SAg Assay for CD38 Biomarker Activity (AID 2283087)
- condition label: primary human HUVEC with PBMC; actives raise or lower the signal
Active and inactive are the calls of the source. The calls were made as follows: active = hit-call score of the fitted dose curve at least 0.9, where 1 is the maximum; inactive = score below 0.9.
reported property: AC50

[[record]]
smiles_data = "CCOCCOC(C)=O"
endpoint_result = "inactive"

[[record]]
smiles_data = "Clc1ccc(Cl)cc1"
endpoint_result = "inactive"

[[record]]
smiles_data = "CCNc1nc(NC(C)C)nc(SC)n1"
endpoint_result = "14.9 µM (active)"

[[record]]
smiles_data = "Sc1ccccc1"
endpoint_result = "inactive"

[[record]]
smiles_data = "Cc1ccccc1[N+](=O)[O-]"
endpoint_result = "inactive"

[[record]]
smiles_data = "CC(C)(c1ccccc1)c1ccc(O)cc1"
endpoint_result = "31.2 µM (active)"

[[record]]
smiles_data = "CC(c1ccc(O)cc1)(c1ccc(O)cc1)c1ccc(O)cc1"
endpoint_result = "24.5 µM (active)"

[[record]]
smiles_data = "Oc1c(Cl)c(Cl)c(Cl)c(Cl)c1Cl"
endpoint_result = "27.7 µM (active)"

[[record]]
smiles_data = "CN(C)CCO"
endpoint_result = "inactive"

[[record]]
smiles_data = "CCCCCCCCCc1ccc(O)cc1"
endpoint_result = "15.9 µM (active)"


--- query ---
Which value of AC50 has been reported for Nc1ccc(-c2ccc(N)cc2)cc1 in the records?
inactive

----------
- Read-out: UDP glucuronosyltransferase (UGT1A6), UGT1A6 (gene 54578)
- method description: LTEA_HepaRG_UGT1A6: Life Technologies and Expression Analysis (LTEA) Assay for UDP glucuronosyltransferase (UGT1A6) using HepaRG (AID 2283539)
- condition label: mRNA level, 48 h; actives raise or lower the signal
Activity calls are given as the source filed them. How the source made its calls: active means hit-call score of the fitted dose curve at least 0.9, where 1 is the maximum; inactive means score below 0.9.
Choose one outcome from this list and give only that: active, inactive

[[record]]
smiles_data = "O=C(NC(=O)c1cc(F)c(F)cc1Cl)Nc1cc(F)ccc1N1CCC(C(=O)O)CC1"
assigned_class = "inactive"

[[record]]
smiles_data = "Cc1ccccc1CO[C@@H]1C[C@@]2(C(C)C)CC[C@]1(C)O2"
assigned_class = "inactive"

[[record]]
smiles_data = "Cc1cccc([N+](=O)[O-])c1"
assigned_class = "inactive"


Would you mind telling me which call this test gave CCCCCCOC(=O)c1ccccc1C(=O)OCCCCCC ?
inactive

Would you mind telling me which call this test gave O=S(=O)(O)C(F)(F)C(F)(F)C(F)(F)C(F)(F)F ?
inactive

----------
- Read-out: Fatty Acid-Binding Protein 1 (FABP1), FABP1 (gene 2168)
- method description: LTEA_HepaRG_FABP1: Life Technologies and Expression Analysis (LTEA) Assay for Fatty Acid-Binding Protein 1 (FABP1) using HepaRG (AID 2283494)
- condition label: mRNA level, 48 h; actives raise or lower the signal
Activity calls are given as the source filed them. Rule for the calls: active = hit-call score of the fitted dose curve at least 0.9, where 1 is the maximum; inactive = score below 0.9.
Choose one outcome from this list and give only that: Yes = active, No = inactive

[[record]]
compound = "CCC(C)(CC)c1cc(NC(=O)c2c(OC)cccc2OC)on1"
assigned_class = "Yes"


# next compound below
Would you mind telling me which call this test gave c1cc2ccc3cccc4ccc(c1)c2c34 ?
No

----------
- Read-out: Vascular cell adhesion molecule 1 (VCAM1), VCAM1 (gene 7412)
- method description: BSK_hDFCGF_VCAM1: BioMAP Diversity Plus: hDFCGF Assay for Vascular cell adhesion molecule 1 (VCAM1) Biomarker Activity (AID 2283065)
- condition label: primary human foreskin fibroblasts; actives raise or lower the signal
The source made the active and inactive calls. The calls were made as follows: active = hit-call score of the fitted dose curve at least 0.9, where 1 is the maximum; inactive = score below 0.9.
Choose one outcome from this list and give only that: active, inactive

Here's what some known entries look like.
[[record]]
smiles_data = "Oc1ccc(C(c2ccc(O)cc2)(C(F)(F)F)C(F)(F)F)cc1"
assigned_class = "active"

[[record]]
smiles_data = "CCOCCOC(C)=O"
assigned_class = "inactive"

[[record]]
smiles_data = "CC(C)(O)C(=O)Nc1ccc([N+](=O)[O-])c(C(F)(F)F)c1"
assigned_class = "inactive"

[[record]]
smiles_data = "C[C@]12CCC(=O)C=C1CC[C@@H]1[C@@H]2CC[C@]2(C)C(=O)CC[C@@H]12"
assigned_class = "inactive"

[[record]]
smiles_data = "Clc1ccc(Cl)cc1"
assigned_class = "inactive"


# next compound below
Would you mind telling me which call this test gave O=C(NC(=O)c1cc(F)c(F)cc1Cl)Nc1cc(F)ccc1N1CCC(C(=O)O)CC1 ?
inactive

----------
- System: frog Estrogen Receptor (ER2), gene 100174814
- method description: ATG_frER2_XSP2: Attagene TRANS-FACTORIAL Multi-Species (XSP2) HepG2 Assay for frog Estrogen Receptor (ER2) (AID 2283828)
Records with an inconclusive call do not appear. Active and inactive are the calls of the source. The calls were made as follows: active = hit-call score of the fitted dose curve at least 0.9, where 1 is the maximum; inconclusive = response in the unintended direction; inactive = score below 0.9.
Choose one outcome from this list and give only that: 1 = active, -1 = inactive

Here's what some known entries look like.
[[record]]
smiles_data = "ClC(Cl)=C(c1ccc(Cl)cc1)c1ccc(Cl)cc1"
assigned_class = 1

[[record]]
smiles_data = "CC(c1ccc(O)cc1)(c1ccc(O)cc1)c1ccc(O)cc1"
assigned_class = -1

[[record]]
smiles_data = "CC(C)(c1ccccc1)c1ccc(O)cc1"
assigned_class = 1

[[record]]
smiles_data = "CC(C)(O)C(=O)Nc1ccc([N+](=O)[O-])c(C(F)(F)F)c1"
assigned_class = -1


# next compound below
Would you mind telling me which call this test gave CCC(=O)O[C@H]1CC[C@H]2[C@@H]3CCC4=CC(=O)CC[C@]4(C)[C@H]3CC[C@]12C ?
1

----------
- method description: CCTE_Mundy_HCI_Cortical_Synap_Neur_Matur_NeuriteLength: CCTE's Synaptogenesis and Neurite Maturation Assay in rat cortical cells for Neurite Length, Mundy Lab (AID 2284214)
Activity calls are given as the source filed them. How the source made its calls: active means hit-call score of the fitted dose curve at least 0.9, where 1 is the maximum; inactive means score below 0.9.
Choose one outcome from this list and give only that: active, inactive

Here's what some known entries look like.
[[record]]
smiles_data = "C=CC(N)=O"
assigned_class = "inactive"

[[record]]
smiles_data = "O=S(=O)(O)C(F)(F)C(F)(F)C(F)(F)C(F)(F)C(F)(F)C(F)(F)F"
assigned_class = "inactive"

[[record]]
smiles_data = "CO/C=C(/C(=O)OC)c1ccccc1COc1cccc(C(F)(F)F)n1"
assigned_class = "active"

[[record]]
smiles_data = "ClC1=C(Cl)[C@]2(Cl)[C@@H]3[C@@H](Cl)[C@H]4O[C@H]4[C@@H]3C1(Cl)C2(Cl)Cl"
assigned_class = "active"


# next compound below
Would you mind telling me which call this test gave ClC1=C(Cl)[C@]2(Cl)[C@@H]3[C@@H]4C[C@@H]([C@H]5O[C@@H]45)[C@@H]3[C@@]1(Cl)C2(Cl)Cl ?
active

----------
- test system: Hypoxia-inducible factor 1-alpha (Homo sapiens) (UniProt Q16665)
- Sequence (Q16665 whole entry, looked up): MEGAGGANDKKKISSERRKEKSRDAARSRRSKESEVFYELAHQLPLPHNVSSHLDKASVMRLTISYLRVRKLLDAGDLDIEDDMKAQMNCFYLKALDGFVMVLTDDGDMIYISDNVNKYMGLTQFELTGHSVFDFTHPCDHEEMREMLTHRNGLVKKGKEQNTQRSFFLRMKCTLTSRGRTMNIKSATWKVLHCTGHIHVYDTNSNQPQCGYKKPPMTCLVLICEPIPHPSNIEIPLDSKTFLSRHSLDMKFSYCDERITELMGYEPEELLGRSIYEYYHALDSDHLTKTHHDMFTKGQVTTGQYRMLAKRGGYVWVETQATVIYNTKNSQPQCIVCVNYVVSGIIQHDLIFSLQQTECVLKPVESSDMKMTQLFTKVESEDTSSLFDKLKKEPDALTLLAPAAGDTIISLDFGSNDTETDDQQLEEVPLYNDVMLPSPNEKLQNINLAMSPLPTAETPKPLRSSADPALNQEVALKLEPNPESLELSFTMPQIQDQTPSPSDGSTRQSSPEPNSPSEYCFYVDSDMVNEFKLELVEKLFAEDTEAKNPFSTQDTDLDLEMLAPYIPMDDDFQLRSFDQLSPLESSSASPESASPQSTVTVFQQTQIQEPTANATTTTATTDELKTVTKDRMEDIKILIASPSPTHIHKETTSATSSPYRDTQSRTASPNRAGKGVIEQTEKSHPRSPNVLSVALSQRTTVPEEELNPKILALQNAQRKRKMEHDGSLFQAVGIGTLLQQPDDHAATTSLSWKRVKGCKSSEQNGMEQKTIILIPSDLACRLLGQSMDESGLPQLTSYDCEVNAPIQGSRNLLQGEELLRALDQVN
- method description: ATG_HIF1a_CIS: Attagene CIS-FACTORIAL HepG2 Assay for human Hypoxia Inducible Factor 1 (HIF1A) (AID 2282951)
- condition label: HepG2 Attagene cis-factorial HIF1a reporter transcription; actives raise or lower the signal
Active and inactive are the calls of the source. Rule for the calls: active = hit-call score of the fitted dose curve at least 0.9, where 1 is the maximum; inactive = score below 0.9.
Choose one outcome from this list and give only that: 1 for active, -1 for inactive

Here's what some known entries look like.
[[record]]
molecule = "COc1ccc(O)c(C(C)(C)C)c1"
assigned_class = 1

[[record]]
molecule = "CC(C)(O)C(=O)Nc1ccc([N+](=O)[O-])c(C(F)(F)F)c1"
assigned_class = -1

[[record]]
molecule = "CCCCCCCCOC(=O)c1ccccc1C(=O)OCCCCCCCC"
assigned_class = 1

[[record]]
molecule = "Cc1cc(-c2ccc(N)c(C)c2)ccc1N"
assigned_class = -1

[[record]]
molecule = "N#Cc1ccc(N(CC(N)=O)CC(F)(F)F)cc1C(F)(F)F"
assigned_class = -1

[[record]]
molecule = "Sc1ccccc1"
assigned_class = -1

[[record]]
molecule = "c1cc2ccc3cccc4ccc(c1)c2c34"
assigned_class = -1


# next molecule below
Would you mind telling me which call this test gave CCC(C)c1cc([N+](=O)[O-])cc([N+](=O)[O-])c1O (stereo not drawn) ?
-1
